Study Target: T1, human C1s (human, UniProt P09871 16-688)
T1 construct: Analyte in the Biacore assays; also called hC1s; serum-derived human C1s (CompTech)
T1 sequence: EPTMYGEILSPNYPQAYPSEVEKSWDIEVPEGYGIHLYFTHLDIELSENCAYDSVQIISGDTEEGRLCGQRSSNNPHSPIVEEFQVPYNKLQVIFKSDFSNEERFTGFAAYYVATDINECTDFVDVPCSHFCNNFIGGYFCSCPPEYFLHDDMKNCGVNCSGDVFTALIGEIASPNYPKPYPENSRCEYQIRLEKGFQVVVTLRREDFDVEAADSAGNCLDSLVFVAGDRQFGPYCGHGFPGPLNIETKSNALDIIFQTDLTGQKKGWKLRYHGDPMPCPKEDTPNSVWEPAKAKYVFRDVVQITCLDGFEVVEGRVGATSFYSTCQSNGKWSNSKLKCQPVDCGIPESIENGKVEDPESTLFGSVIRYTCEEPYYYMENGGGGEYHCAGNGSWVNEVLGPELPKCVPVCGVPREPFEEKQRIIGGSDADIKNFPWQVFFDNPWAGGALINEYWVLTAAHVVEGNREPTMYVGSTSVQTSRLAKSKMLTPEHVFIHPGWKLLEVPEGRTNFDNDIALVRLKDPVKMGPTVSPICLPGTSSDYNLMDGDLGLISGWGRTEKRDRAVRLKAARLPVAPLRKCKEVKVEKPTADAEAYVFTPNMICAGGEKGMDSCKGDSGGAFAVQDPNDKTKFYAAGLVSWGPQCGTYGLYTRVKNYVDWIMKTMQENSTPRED
Assay Info: SPR (Biacore T200, 37C), Ab captured on protein A/G; pH 5.8, 1.2 mM Ca
pKd: −log10 of the molar value.
Each entry below lists one item and its recorded pKd value.
Observable: pKd

>>> test_value("C1_IPN92H0160-SG4GK/IPN93L0024-SK1 (antibody, human IgG4 S228P, kappa, name in Kabat numbering, V domains shown, Substitutions from IPN009VH2, Kabat numbering; also called IPN92H0160/IPN93L0024) VH: EVMLVESGGGLVKPGGSLRLSCAASGFTFSNYAMSWVRQAPGKGLEWVATISSGGSHTYELDSVKGRFTISRDNSKDTLYLQMNSLRAEDTALYYCARLFTGHAMDYWGQGTLVTVSS VL: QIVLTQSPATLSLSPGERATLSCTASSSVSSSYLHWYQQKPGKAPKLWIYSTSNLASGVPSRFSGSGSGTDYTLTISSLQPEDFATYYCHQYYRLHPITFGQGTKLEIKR")
7.86
>>> test_value("C1_IPN92H0145-SG4GK/IPN93L0024-SK1 (antibody, human IgG4 S228P, kappa, name in Kabat numbering, V domains shown, Substitutions from IPN009VH2, Kabat numbering; also called IPN92H0145/IPN93L0024) VH: EVMLVESGGGLVKPGGSLRLSCAASGFTFSNYAMSWVRQAPGKGLEWVATISSGGSRTYYLDSVKGRFTISRDNSKDTLYLQMNSLRAEDTALYYCARLFTGHAMDYWGQGTLVTVSS VL: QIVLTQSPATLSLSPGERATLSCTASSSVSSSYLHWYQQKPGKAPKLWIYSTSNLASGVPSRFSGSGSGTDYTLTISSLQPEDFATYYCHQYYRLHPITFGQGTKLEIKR")
7.72
>>> test_value("C1_IPN92H0157-SG4GK/IPN93L0024-SK1 (antibody, human IgG4 S228P, kappa, name in Kabat numbering, V domains shown, Substitutions from IPN009VH2, Kabat numbering; also called IPN92H0157/IPN93L0024) VH: EVMLVESGGGLVKPGGSLRLSCAASGFTFSNYAMSWVRQAPGKGLEWVATISSGGSHTRYLDSVKGRFTISRDNSKDTLYLQMNSLRAEDTALYYCARLFTGHAMDYWGQGTLVTVSS VL: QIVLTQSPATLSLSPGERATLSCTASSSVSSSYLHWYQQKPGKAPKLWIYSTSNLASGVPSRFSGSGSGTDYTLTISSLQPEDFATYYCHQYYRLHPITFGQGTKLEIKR")
7.73

Hello, the source for this data is patent US20210032365A1, in case you need it.
